Examples of compounds with documented IC50 follow.
Target sequence: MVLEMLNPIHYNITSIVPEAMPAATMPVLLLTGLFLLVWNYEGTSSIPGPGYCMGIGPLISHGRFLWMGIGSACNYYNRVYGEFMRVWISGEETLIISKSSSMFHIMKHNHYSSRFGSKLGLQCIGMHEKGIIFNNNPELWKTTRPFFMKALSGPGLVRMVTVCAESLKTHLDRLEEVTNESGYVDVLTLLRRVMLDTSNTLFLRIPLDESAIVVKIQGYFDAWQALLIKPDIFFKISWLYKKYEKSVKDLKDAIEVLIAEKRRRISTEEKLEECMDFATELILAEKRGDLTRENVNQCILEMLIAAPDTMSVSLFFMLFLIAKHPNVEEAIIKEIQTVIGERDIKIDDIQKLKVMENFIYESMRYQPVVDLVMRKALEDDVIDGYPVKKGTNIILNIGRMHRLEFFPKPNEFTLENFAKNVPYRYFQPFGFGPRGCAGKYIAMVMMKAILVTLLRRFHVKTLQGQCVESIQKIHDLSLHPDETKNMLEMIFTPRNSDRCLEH
Report the value in µM with no unit label.

get_value(item= CC(C)=C(c1ccncc1)c1ccc(-c2cccc(O)c2)cc1 , readout=IC50) returns 12

get_value(item= Oc1ccc(-c2ccc(Cc3ccncc3)cc2)cc1F , readout=IC50) returns 1.67

get_value(item= Nc1cccc(-c2ccc(Cc3ccncc3)cc2)c1 , readout=IC50) returns 2.83

get_value(item= Oc1ccc(-c2ccc(Cc3ccncc3)cc2)cc1O , readout=IC50) returns 2.44

Continuing:
get_value(item= Oc1cccc(-c2ccc(Cc3ccncc3)cc2)c1 , readout=IC50) returns 0.663

get_value(item= Nc1ccc(-c2ccc(Cc3ccncc3)cc2)cc1N , readout=IC50) returns 24.6

---

Target entity: Cytochrome P450 11B2, mitochondrial (Homo sapiens, UniProt P19099)
Sequence (P19099 whole entry): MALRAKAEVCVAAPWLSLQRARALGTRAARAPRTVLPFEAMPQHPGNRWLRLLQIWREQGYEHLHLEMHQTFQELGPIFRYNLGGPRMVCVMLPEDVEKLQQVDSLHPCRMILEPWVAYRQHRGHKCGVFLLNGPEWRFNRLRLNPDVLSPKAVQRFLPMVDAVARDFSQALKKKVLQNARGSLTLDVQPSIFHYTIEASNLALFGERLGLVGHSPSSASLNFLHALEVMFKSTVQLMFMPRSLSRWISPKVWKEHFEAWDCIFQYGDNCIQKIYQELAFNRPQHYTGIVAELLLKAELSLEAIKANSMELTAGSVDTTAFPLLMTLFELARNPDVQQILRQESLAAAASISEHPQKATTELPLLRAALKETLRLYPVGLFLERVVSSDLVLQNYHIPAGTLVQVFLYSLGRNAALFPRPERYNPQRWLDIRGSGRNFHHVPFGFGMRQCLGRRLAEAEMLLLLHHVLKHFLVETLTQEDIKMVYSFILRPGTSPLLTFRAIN
Measurement protocol: Inhibition of human CYP11B2 expressed in hamster V79MZh cells
Examples of molecules with documented pIC50 follow.
// pIC50 is dimensionless: -log10 of concentration (M)

Before answering, review these 2 worked examples.
get_value(item= C[C@]12CC[C@H](O)CC1=CC[C@@H]1[C@@H]2CC[C@]2(C)C(c3cccnc3)=CC[C@@H]12 , readout=pIC50) returns 5.76

get_value(item= Nc1ccc(-c2ccc(Cc3ccncc3)cc2)cc1N , readout=pIC50) returns 6.43

Continuing:
get_value(item= CC(C)=C(c1ccncc1)c1ccc(-c2ccc(N)c(N)c2)cc1 , readout=pIC50) returns 5.95

get_value(item= CC(C)=C(c1ccncc1)c1ccc(-c2cccc(N)c2)cc1 , readout=pIC50) returns 5.42

get_value(item= CC(C)=C(c1ccncc1)c1ccc(-c2cccc(O)c2)cc1 , readout=pIC50) returns 5.46

get_value(item= Oc1cccc(-c2ccc(Cc3ccncc3)cc2)c1 , readout=pIC50) returns 6.58

get_value(item= Nc1cccc(-c2ccc(Cc3ccncc3)cc2)c1 , readout=pIC50) returns 6.04

get_value(item= Oc1ccc(-c2ccc(Cc3ccncc3)cc2)cc1F , readout=pIC50) returns 6.96

---

Target entity: Cytochrome P450 11B1, mitochondrial (Homo sapiens)
Measurement protocol: Inhibition of human CYP11B1 expressed in hamster V79MZh cells
pIC50: −log10 of the molar value.
Give Met when the value for pIC50 is at least 6. Give Not met when it is less.

Solved cases (6 shown):
Request: Is pIC50 for CC(C)=C(c1ccncc1)c1ccc(-c2ccc3cc(O)ccc3c2)cc1 at or above 6?
Response: Not met

Request: Is pIC50 for Oc1ccc(-c2ccc(Cc3ccncc3)cc2)cc1F at or above 6?
Response: Met

Request: Is pIC50 for CC(C)=C(c1ccncc1)c1ccc(-c2ccc(N)c(N)c2)cc1 at or above 6?
Response: Not met

Request: Is pIC50 for CC(C)=C(c1ccncc1)c1ccc(-c2ccc(O)c(O)c2)cc1 at or above 6?
Response: Not met

Request: Is pIC50 for CC(C)=C(c1ccncc1)c1ccc(-c2ccc(O)c(F)c2)cc1 at or above 6?
Response: Not met

Request: Is pIC50 for CC(C)=C(c1ccncc1)c1ccc(-c2cccc(O)c2)cc1 at or above 6?
Response: Not met

Consider the additional molecule presented here.
Request: Is pIC50 for CC(C)=C(c1ccncc1)c1ccc(-c2cccc(N)c2)cc1 at or above 6?
Response: Not met

---

Examples of compounds with documented pIC50 follow.
Target entity: UniProt:P08684
Sequence (P08684 whole entry): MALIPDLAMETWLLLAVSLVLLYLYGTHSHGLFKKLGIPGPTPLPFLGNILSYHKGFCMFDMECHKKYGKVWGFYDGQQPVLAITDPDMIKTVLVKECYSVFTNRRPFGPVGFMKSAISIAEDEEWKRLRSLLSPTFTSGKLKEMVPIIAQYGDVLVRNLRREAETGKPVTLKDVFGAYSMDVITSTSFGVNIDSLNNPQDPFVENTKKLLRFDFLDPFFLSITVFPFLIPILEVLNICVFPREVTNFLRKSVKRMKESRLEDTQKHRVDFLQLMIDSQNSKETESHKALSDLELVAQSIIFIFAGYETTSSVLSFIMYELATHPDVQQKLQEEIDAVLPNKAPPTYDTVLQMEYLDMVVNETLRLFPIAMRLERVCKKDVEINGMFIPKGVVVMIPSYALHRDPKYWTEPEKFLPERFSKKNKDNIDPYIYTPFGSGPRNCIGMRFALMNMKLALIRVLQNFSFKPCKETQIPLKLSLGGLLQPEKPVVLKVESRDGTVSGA
// pIC50 is dimensionless: -log10 of concentration (M)

Before answering, review these 4 worked examples.
get_value(item= Oc1ccc(-c2ccc(Cc3ccncc3)cc2)cc1O , readout=pIC50) returns 5.12

get_value(item= Oc1cccc(-c2ccc(Cc3ccncc3)cc2)c1 , readout=pIC50) returns 6.27

get_value(item= CC(C)=C(c1ccncc1)c1ccc(-c2ccc(O)c(F)c2)cc1 , readout=pIC50) returns 4.75

get_value(item= CC(C)=C(c1ccncc1)c1ccc(-c2ccc(O)c(O)c2)cc1 , readout=pIC50) returns 6.33

Continuing:
get_value(item= CC(C)=C(c1ccncc1)c1ccc(-c2cccc(O)c2)cc1 , readout=pIC50) returns 6.14

---

Target entity: Steroid 17-alpha-hydroxylase/17,20 lyase (Homo sapiens, UniProt P05093)
Sequence (P05093 whole entry): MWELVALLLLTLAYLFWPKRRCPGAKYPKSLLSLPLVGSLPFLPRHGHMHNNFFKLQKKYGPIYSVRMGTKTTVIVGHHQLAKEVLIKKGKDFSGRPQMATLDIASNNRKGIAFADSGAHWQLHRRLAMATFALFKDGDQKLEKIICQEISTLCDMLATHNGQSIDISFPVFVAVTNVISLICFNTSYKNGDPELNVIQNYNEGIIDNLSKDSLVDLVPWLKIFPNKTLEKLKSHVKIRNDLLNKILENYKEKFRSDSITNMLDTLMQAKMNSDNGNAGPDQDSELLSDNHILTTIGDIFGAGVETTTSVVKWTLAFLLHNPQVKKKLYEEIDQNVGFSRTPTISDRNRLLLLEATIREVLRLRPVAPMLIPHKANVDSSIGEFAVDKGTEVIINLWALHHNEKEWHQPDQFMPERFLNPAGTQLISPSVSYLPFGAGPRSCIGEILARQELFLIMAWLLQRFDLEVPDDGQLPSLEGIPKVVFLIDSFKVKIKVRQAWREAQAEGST
Assay readout: pIC50
// pIC50 is dimensionless: -log10 of concentration (M)

Before answering, review these 3 worked examples.
get_value(item= CC(C)C(c1ccncc1)c1ccc(-c2cccc(O)c2)cc1 (configuration not stated) , readout=pIC50) returns 6.11

get_value(item= CC(C)=C(c1ccncc1)c1ccc(-c2ccc(O)c(O)c2)cc1 , readout=pIC50) returns 7.43

get_value(item= CC(C)=C(c1ccncc1)c1ccc(-c2cccc(N)c2)cc1 , readout=pIC50) returns 7.42

Continuing:
get_value(item= CC(C)=C(c1ccncc1)c1ccc(-c2ccc(NC(=O)OC(C)(C)C)cc2)cc1 , readout=pIC50) returns 6.31

get_value(item= Nc1ccc(-c2ccc(Cc3ccncc3)cc2)cc1N , readout=pIC50) returns 6.47

get_value(item= CC(C)=C(c1ccncc1)c1ccc(-c2ccc(N)c(N)c2)cc1 , readout=pIC50) returns 7.12

---

Target entity: Cytochrome P450 11B2, mitochondrial (Homo sapiens)
Measurement protocol: Inhibition of human CYP11B2 expressed in hamster V79MZh cells
Assay readout: pIC50
// pIC50 is dimensionless: -log10 of concentration (M)

Before answering, review these 3 worked examples.
get_value(item= CC(C)=C(c1ccncc1)c1ccc(-c2ccc(O)c(O)c2)cc1 , readout=pIC50) returns 6.01

get_value(item= CC(C)=C(c1ccncc1)c1ccc(-c2ccc(O)c(F)c2)cc1 , readout=pIC50) returns 5.73

get_value(item= Oc1ccc(-c2ccc(Cc3ccncc3)cc2)cc1O , readout=pIC50) returns 6.02

Next compound, pIC50 to be filled in.
get_value(item= CC(C)=C(c1ccncc1)c1ccc(-c2ccc3cc(O)ccc3c2)cc1 , readout=pIC50) returns 4.31

---

Target entity: Cytochrome P450 11B1, mitochondrial (Homo sapiens, UniProt P15538)
Sequence (P15538 whole entry): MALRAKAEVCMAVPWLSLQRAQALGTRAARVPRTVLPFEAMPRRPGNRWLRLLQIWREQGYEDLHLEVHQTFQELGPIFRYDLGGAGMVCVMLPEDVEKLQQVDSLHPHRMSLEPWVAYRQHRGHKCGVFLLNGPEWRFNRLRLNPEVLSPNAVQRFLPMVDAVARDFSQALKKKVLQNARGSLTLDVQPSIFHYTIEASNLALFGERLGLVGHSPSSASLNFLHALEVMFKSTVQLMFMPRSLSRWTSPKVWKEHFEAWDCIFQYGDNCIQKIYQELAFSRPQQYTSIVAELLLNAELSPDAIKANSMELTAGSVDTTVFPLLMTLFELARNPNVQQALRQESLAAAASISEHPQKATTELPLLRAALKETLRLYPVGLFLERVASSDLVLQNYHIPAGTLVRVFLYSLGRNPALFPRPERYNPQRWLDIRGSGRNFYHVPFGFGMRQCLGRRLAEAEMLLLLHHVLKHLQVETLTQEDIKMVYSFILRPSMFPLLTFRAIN
Measurement protocol: Inhibition of human CYP11B1 expressed in hamster V79MZh cells
Criterion: IC50 strictly under 0.5 µM. Met: 1.0. Not met: 0.0.

Solved cases (3 shown):
Request: I wonder whether Oc1ccc(-c2ccc(Cc3ccncc3)cc2)cc1O has IC50 below 0.5 µM. Can you tell?
Response: 0.0

Request: I wonder whether C[C@]12CC[C@H](O)CC1=CC[C@@H]1[C@@H]2CC[C@]2(C)C(c3cccnc3)=CC[C@@H]12 [ABIRATERONE] has IC50 below 0.5 µM. Can you tell?
Response: 0.0

Request: I wonder whether Oc1cccc(-c2ccc(Cc3ccncc3)cc2)c1 has IC50 below 0.5 µM. Can you tell?
Response: 1.0

Continuing:
Request: I wonder whether Nc1cccc(-c2ccc(Cc3ccncc3)cc2)c1 has IC50 below 0.5 µM. Can you tell?
Response: 1.0
